Cited source: patent US5081234A

Test system: murine P388 lymphocytic leukemia
measurement-description: In vivo antitumor activity against murine P388 lymphocytic leukemia
Parameters: species or system mice (female CDF1)
condition-set: median survival time treated/control; P388 i.p. day 0, i.p. once on day 1 (Q1D×1), observed 45 days; maximum T/C, at dose (mg/kg): D 30, E 120, F 60, G 120, H 30, I 10, K 10, Etoposide 120; >125% considered significant
Procedure: Representative compounds of the present invention were evaluated against murine P388 lymphocytic leukemia. Female CDF1 mice were inoculated with 1.0×10^6 of leukemia cells intraperitoneally (day 0), and test materials were intraperitoneally administered to mice once on day 1 (Q1D×1). […] The median survival time (MST) of each group was recorded, and antitumor activity was expressed as T/C % values calculated by the following equation: T/C%=(MST of treated.div.MST of control)×100
Attribute: Antitumor Activity vs P388, Max % T/C

- molecule: "COc1cc([C@@H]2c3cc4c(cc3[C@@H](O[C@@H]3O[C@H](CO)[C@@H](O)[C@H]3O)[C@H]3COC(=O)[C@H]23)OCO4)cc(OC)c1O"
  Antitumor Activity vs P388, Max % T/C / %: 130
- molecule: "COc1cc([C@@H]2c3cc4c(cc3[C@@H](O[C@@H]3OC[C@H]5OC(C)O[C@H]5[C@H]3O)[C@H]3COC(=O)[C@H]23)OCO4)cc(OC)c1O (stereo partly shown)"
  Antitumor Activity vs P388, Max % T/C / %: 152
- molecule: "COc1cc([C@@H]2c3cc4c(cc3[C@@H](O[C@H]3OC[C@@H](O)[C@@H](O)[C@@H]3O)[C@H]3COC(=O)[C@H]23)OCO4)cc(OC)c1O"
  Antitumor Activity vs P388, Max % T/C / %: 125
- molecule: "COc1cc([C@@H]2c3cc4c(cc3[C@@H](O[C@H]3OC[C@@H](O)[C@H](O)[C@H]3O)[C@H]3COC(=O)[C@H]23)OCO4)cc(OC)c1O"
  Antitumor Activity vs P388, Max % T/C / %: 140
- molecule: "COc1cc([C@@H]2c3cc4c(cc3[C@@H](O[C@@H]3OC[C@@H](O)[C@@H](O)[C@H]3O)[C@H]3COC(=O)[C@H]23)OCO4)cc(OC)c1O"
  Antitumor Activity vs P388, Max % T/C / %: 181
- molecule: "COc1cc([C@@H]2c3cc4c(cc3[C@@H](O[C@@H]3OC[C@@H](O)[C@H](O)[C@H]3O)[C@H]3COC(=O)[C@H]23)OCO4)cc(OC)c1O"
  Antitumor Activity vs P388, Max % T/C / %: 150
- molecule: "COc1cc([C@@H]2c3cc4c(cc3[C@@H](O[C@@H]3OC[C@@H](OC(C)=O)[C@@H](OC(C)=O)[C@H]3OC(C)=O)[C@H]3COC(=O)[C@H]23)OCO4)cc(OC)c1O"
  Antitumor Activity vs P388, Max % T/C / %: 171
